assay type: in vivo, human; details: human, plasma, oral, 4 mg, Plasma concentration, mean (standard deviation), 4 h; D −3 midazolam only
quantity: concentration at 4 h (ng/mL)
Report the value in ng/mL with no unit label.

For record Cc1ncc2n1-c1ccc(Cl)cc1C(c1ccccc1F)=NC2 [midazolam] the listed concentration at 4 h is 6.12

---

type: in vivo, human; details: human, plasma, oral, tmax, Day 1, with single dose of lenvatinib; median (minimum, maximum)
quantity: tmax
# number then unit; no other words

For record Cc1ncc2n1-c1ccc(Cl)cc1C(c1ccccc1F)=NC2 the listed tmax is 37.8 min

---

format: in vivo, human; conditions: human, plasma, oral, Plasma concentration, mean (standard deviation), 4 h; D1 1 dose of lenvatinib and midazolam
quantity: concentration at 4 h (ng/mL)
Report the value in ng/mL with no unit label.

For record Cc1ncc2n1-c1ccc(Cl)cc1C(c1ccccc1F)=NC2 [midazolam] the listed concentration at 4 h is 5.67

---

assay type: in vivo, human; details: human, plasma, oral, 4 mg, Plasma concentration, mean (standard deviation), 10 h; D −3 midazolam only
quantity: concentration at 10 h (ng/mL)
Report the value in ng/mL with no unit label.

For record Cc1ncc2n1-c1ccc(Cl)cc1C(c1ccccc1F)=NC2 [midazolam] the listed concentration at 10 h is 2.51

---

format: in vivo, human; conditions: human, plasma, oral, Plasma concentration, mean (standard deviation), 6 h; D1 1 dose of lenvatinib and midazolam
quantity: concentration at 6 h (ng/mL)
Report the value in ng/mL with no unit label.

For record Cc1ncc2n1-c1ccc(Cl)cc1C(c1ccccc1F)=NC2 the listed concentration at 6 h is 4.08

---

format: in vivo, human; conditions: human, plasma, oral, 4 mg, Plasma concentration, mean (standard deviation), 1 h; D −3 midazolam only
quantity: concentration at 1 h (ng/mL)
Report the value in ng/mL with no unit label.

For record Cc1ncc2n1-c1ccc(Cl)cc1C(c1ccccc1F)=NC2 the listed concentration at 1 h is 19

---

type: in vivo, human; details: human, plasma, oral, Plasma concentration, mean (standard deviation), 24 h; D1 1 dose of lenvatinib and midazolam
quantity: concentration at 24 h
# number then unit; no other words

For record Cc1ncc2n1-c1ccc(Cl)cc1C(c1ccccc1F)=NC2 the listed concentration at 24 h is 0.628 ng/mL

---

type: in vivo, human; details: human, plasma, oral, Plasma concentration, mean (standard deviation), 1.5 h; D14 multiple doses of lenvatinib and 1 dose of midazolam
quantity: concentration at 1.5 h (ng/mL)
Report the value in ng/mL with no unit label.

For record Cc1ncc2n1-c1ccc(Cl)cc1C(c1ccccc1F)=NC2 the listed concentration at 1.5 h is 17.8

---

assay type: in vivo, human; conditions: human, plasma, oral, Plasma concentration, mean (standard deviation), 1 h; D14 multiple doses of lenvatinib and 1 dose of midazolam
quantity: concentration at 1 h (ng/mL)
Report the value in ng/mL with no unit label.

For record Cc1ncc2n1-c1ccc(Cl)cc1C(c1ccccc1F)=NC2 the listed concentration at 1 h is 23.1

---

assay type: in vivo, human; conditions: human, plasma, oral, Plasma concentration, mean (standard deviation), 1 h; D1 1 dose of lenvatinib and midazolam
quantity: concentration at 1 h (µg/mL)
Report the value in µg/mL with no unit label.

For record Cc1ncc2n1-c1ccc(Cl)cc1C(c1ccccc1F)=NC2 the listed concentration at 1 h is 0.0165

---

type: in vivo, human; details: human, plasma, oral, Cmax, Day 1, with single dose of lenvatinib; mean (SD)
quantity: Cmax (ng/mL)
Report the value in ng/mL with no unit label.

For record Cc1ncc2n1-c1ccc(Cl)cc1C(c1ccccc1F)=NC2 [midazolam] the listed Cmax is 24.8

---

type: in vivo, human; conditions: human, plasma, oral, Plasma concentration, mean (standard deviation), 3 h; D1 1 dose of lenvatinib and midazolam
quantity: concentration at 3 h

For record Cc1ncc2n1-c1ccc(Cl)cc1C(c1ccccc1F)=NC2 the listed concentration at 3 h is 7.89 ng/mL

---

assay type: in vivo, human; conditions: human, plasma, oral, AUC0–24, Day 14, midazolam with lenvatinib at steady state; mean (SD); n = 19
quantity: AUC(0-t) (ng·h/mL)
Report the value in ng·h/mL with no unit label.

For record Cc1ncc2n1-c1ccc(Cl)cc1C(c1ccccc1F)=NC2 the listed AUC(0-t) is 117

---

format: in vivo, human; conditions: human, plasma, oral, Plasma concentration, mean (standard deviation), 6 h; D14 multiple doses of lenvatinib and 1 dose of midazolam
quantity: concentration at 6 h (ng/mL)
Report the value in ng/mL with no unit label.

For record Cc1ncc2n1-c1ccc(Cl)cc1C(c1ccccc1F)=NC2 [midazolam] the listed concentration at 6 h is 5.21

---

assay type: in vivo, human; details: human, plasma, oral, 4 mg, Plasma concentration, mean (standard deviation), 24 h; D −3 midazolam only
quantity: concentration at 24 h (ng/mL)
Report the value in ng/mL with no unit label.

For record Cc1ncc2n1-c1ccc(Cl)cc1C(c1ccccc1F)=NC2 the listed concentration at 24 h is 0.53

---

format: in vivo, human; details: human, plasma, oral, 4 mg, Plasma concentration, mean (standard deviation), 2 h; D −3 midazolam only
quantity: concentration at 2 h
# number then unit; no other words

For record Cc1ncc2n1-c1ccc(Cl)cc1C(c1ccccc1F)=NC2 [midazolam] the listed concentration at 2 h is 13.1 ng/mL

---

type: in vivo, human; settings: human, plasma, oral, Plasma concentration, mean (standard deviation), 0.5 h; D14 multiple doses of lenvatinib and 1 dose of midazolam
quantity: concentration at 0.5 h (ng/mL)
Report the value in ng/mL with no unit label.

For record Cc1ncc2n1-c1ccc(Cl)cc1C(c1ccccc1F)=NC2 [midazolam] the listed concentration at 0.5 h is 23.7

---

assay type: in vivo, human; conditions: human, plasma, oral, Plasma concentration, mean (standard deviation), 2 h; D1 1 dose of lenvatinib and midazolam
quantity: concentration at 2 h (ng/mL)
Report the value in ng/mL with no unit label.

For record Cc1ncc2n1-c1ccc(Cl)cc1C(c1ccccc1F)=NC2 the listed concentration at 2 h is 11.3

---

format: in vivo, human; conditions: human, plasma, oral, Plasma concentration, mean (standard deviation), 8 h; D14 multiple doses of lenvatinib and 1 dose of midazolam
quantity: concentration at 8 h
# number then unit; no other words

For record Cc1ncc2n1-c1ccc(Cl)cc1C(c1ccccc1F)=NC2 the listed concentration at 8 h is 4.05 ng/mL

---

format: in vivo, human; conditions: human, plasma, oral, 4 mg, Plasma concentration, mean (standard deviation), 8 h; D −3 midazolam only
quantity: concentration at 8 h (ng/mL)
Report the value in ng/mL with no unit label.

For record Cc1ncc2n1-c1ccc(Cl)cc1C(c1ccccc1F)=NC2 the listed concentration at 8 h is 3.24

---

type: in vivo, human; conditions: human, plasma, oral, Plasma concentration, mean (standard deviation), 10 h; D14 multiple doses of lenvatinib and 1 dose of midazolam
quantity: concentration at 10 h (ng/mL)
Report the value in ng/mL with no unit label.

For record Cc1ncc2n1-c1ccc(Cl)cc1C(c1ccccc1F)=NC2 [midazolam] the listed concentration at 10 h is 3.47

---

format: in vivo, human; conditions: human, plasma, oral, 4 mg, Vz/F, Day −3, midazolam alone; mean (SD)
quantity: Vd/F
# number then unit; no other words

For record Cc1ncc2n1-c1ccc(Cl)cc1C(c1ccccc1F)=NC2 the listed Vd/F is 382 L

---

format: in vivo, human; details: human, plasma, oral, 4 mg, Plasma concentration, mean (standard deviation), 3 h; D −3 midazolam only
quantity: concentration at 3 h (ng/mL)
Report the value in ng/mL with no unit label.

For record Cc1ncc2n1-c1ccc(Cl)cc1C(c1ccccc1F)=NC2 [midazolam] the listed concentration at 3 h is 8.78
